tested on: MS2 coat protein; test: apparent KD of MS2 coat protein; designed switch direction (-1 OFF switch, 1 ON switch): -1; higher = weaker reporter binding; conditions: input ligand: none
assay-metric: apparent KD of MS2 coat protein (nM)
Quick reminder: number only, in nM, skip the unit.

| query-sequence | unit-tag | apparent KD of MS2 coat protein |
| --- | --- | --- |
| ACAUGAGGAUCACCCAUGUCAGGCUGGUCCGCUCCGGCUGUUGAGGAUAUAGCACGGUAUCCGCGCUAGAAGGUGAGGGCCGGC [Aenatbe mod 30] (Eterna round: R96, puzzle: Exclusion NG 3) | nM | 22.5 |
| ACAUGACUGCUAGGAUAUAGAUGACAUGAGGAUCACCCAUGUUAUCCCAUGUUGACGGAAACCGACUAGAAGGAGCAACAUAUG [Ex NG2 #8] (Eterna round: R96, puzzle: Exclusion NG 2) | nM | 46.5 |

Any idea what its apparent KD of MS2 coat protein is? The sequence is UUUUUUUUGCGAGGAUAUGCUUUUAGUUAGUUAGCAGAAGGCGCGUUUCUUUUCUCCUCUUCUUACAUGAGGAUCACCCAUGUU [JR_ExcNG1_Sub034] (Eterna round: R96, puzzle: Exclusion NG 1) 54.1

Would you mind telling me what apparent KD of MS2 coat protein value was observed for UGAUCUAGCGGAGGAUAUACAUGAGGAUCACCCAUGUAGUGGUGACGUGCGUACAUGUCACCUGUGUAGAAGGCCGCUAGAUCU [JL ENG2 3.58] (Eterna round: R96, puzzle: Exclusion NG 2) ? 14.8

# query: apparent KD of MS2 coat protein of entry GAUUGAGAGCAGGAUAUCUUAGAAAUGUAUGAAAGAGAAGGGCUCACAUGAGGAUCACCCAUGUGGUCCUAGAU [JL Dibiri mod 17] (Eterna round: R96, puzzle: Exclusion 6) 25.4

If you can, please state the reported apparent KD of MS2 coat protein value of AUCGUGUGAGGAUAUCGAUGUUGGACGUCUAGGUCUGAGCGCGAGAAGGCACAUGAGGAUCACCCAUGUAAGGG [jl-ex4-4.24 ViennaUCT mod] (Eterna round: R97, puzzle: Exclusion 4) . 896

Returns the measured apparent KD of MS2 coat protein for the input sequence. Input: ACUCAACAGUAGGAUAUCAUCAAACUAUUGUGAUGAGAAGGACUGACAUGAGGAUCACCCAUGUUAACGUGAAG [Mod of Brourd 3 - Jieux - Exclusion 6] (Eterna round: R97, puzzle: Exclusion 6) 28.4

So what does the record say about apparent KD of MS2 coat protein for AAAGCCAAGCGAGGAUAUGCGAUAGUUGAUCUUCGUGAGGACAUGAGGAUCACCCAUGUGCUGCAGCAGAAGGCGCAGGUAAAG [Anramaqu] (Eterna round: R96, puzzle: Exclusion NG 2) ? 318

Returns the measured apparent KD of MS2 coat protein for the input sequence. Input: ACCUCUUGAGGAUAUACAUGAGGAUCACCCAUGUUCCUUAAUAAAAUAGUUAUAUCGUGUAGAAGGUGGGAGGC [Eternabot (L2) Solution 42] (Eterna round: R97, puzzle: Exclusion 3) 69

FYI, the data here is from the supplement of paper PMC9170038.
